- Measured target: 5-LO (Homo sapiens)
- Construct: incubating a test compound with heparinised human blood, prior to challenge with the calcium ionophore A23187
- Sequence (P09917 1-674): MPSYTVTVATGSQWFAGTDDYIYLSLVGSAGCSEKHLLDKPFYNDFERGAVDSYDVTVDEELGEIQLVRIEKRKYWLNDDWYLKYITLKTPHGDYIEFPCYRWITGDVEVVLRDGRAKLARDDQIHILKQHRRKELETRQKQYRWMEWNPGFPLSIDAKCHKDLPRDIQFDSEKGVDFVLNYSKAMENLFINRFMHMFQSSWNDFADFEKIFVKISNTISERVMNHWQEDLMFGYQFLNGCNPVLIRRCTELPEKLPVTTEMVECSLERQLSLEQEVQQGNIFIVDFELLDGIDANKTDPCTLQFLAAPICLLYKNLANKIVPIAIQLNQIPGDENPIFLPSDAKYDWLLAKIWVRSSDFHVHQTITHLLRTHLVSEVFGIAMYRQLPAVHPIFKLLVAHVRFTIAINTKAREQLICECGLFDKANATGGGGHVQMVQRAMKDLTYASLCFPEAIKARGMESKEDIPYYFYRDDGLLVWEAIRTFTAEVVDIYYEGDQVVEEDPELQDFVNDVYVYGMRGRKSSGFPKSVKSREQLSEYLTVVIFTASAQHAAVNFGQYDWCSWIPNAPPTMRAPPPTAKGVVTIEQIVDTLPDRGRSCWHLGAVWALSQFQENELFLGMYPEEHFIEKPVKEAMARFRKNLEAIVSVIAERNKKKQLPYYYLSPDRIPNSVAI
- Experiment summary: test a) in vitro assay, heparinised human blood challenged with calcium ionophore A23187, LTB4 radioimmunoassay
pIC50: −log10 of the molar value.
Endpoint: pIC50

INSERT INTO measurements (chemical_string, endpoint, readout_number) VALUES
  ('CO[C@]1(c2cc(F)cc(Sc3ccc(/C(C)=N/O)cc3)c2)CCO[C@@H](C)C1', 'pIC50', 7.40),
  ('COC1(c2cc(F)cc(Sc3ccc(/C(C)=N/OCC#N)cc3)c2)CCOCC1', 'pIC50', 7.52),
  ('CO/N=C(\C)c1ccc(Sc2cc(F)cc(C3(OC)CCOCC3)c2)cc1', 'pIC50', 6.96);
